growth by entry:
test system: HT29 colon; test: NCI-60 one-dose screen, 48 h (100 = growth as untreated, 0 = no growth, -100 = all killed); conditions: 10 µM unless noted
This is part of a sample that, as a whole, favours compounds with a hit. Of some 83,000 tested, about 20% had one in any assay.
Report the value in % with no unit label.

• CC(C)c1cc(C(=O)O)c(O)c(C(C)C)c1.CC(C)c1cc(C(=O)O)c(O)c(C(C)C)c1.[Mn] = 119
• Cn1cc(-c2csc(-c3c[nH]c4ccccc34)n2)c2cccnc21 = 10.2

Field: next compound
Specify measured growth for NC(Cc1ccc(O)cc1)C(=O)N/N=C/c1ccccc1O (stereo not drawn) .
101
